Reference source for all entries: ChEMBL document CHEMBL1949531

molecular target: Albumin (Homo sapiens, UniProt P02768); assay: Binding affinity to human serum albumin by fluorescence quenching assay; assay type: ADME; settings: isolated protein
Sequence (P02768 whole entry): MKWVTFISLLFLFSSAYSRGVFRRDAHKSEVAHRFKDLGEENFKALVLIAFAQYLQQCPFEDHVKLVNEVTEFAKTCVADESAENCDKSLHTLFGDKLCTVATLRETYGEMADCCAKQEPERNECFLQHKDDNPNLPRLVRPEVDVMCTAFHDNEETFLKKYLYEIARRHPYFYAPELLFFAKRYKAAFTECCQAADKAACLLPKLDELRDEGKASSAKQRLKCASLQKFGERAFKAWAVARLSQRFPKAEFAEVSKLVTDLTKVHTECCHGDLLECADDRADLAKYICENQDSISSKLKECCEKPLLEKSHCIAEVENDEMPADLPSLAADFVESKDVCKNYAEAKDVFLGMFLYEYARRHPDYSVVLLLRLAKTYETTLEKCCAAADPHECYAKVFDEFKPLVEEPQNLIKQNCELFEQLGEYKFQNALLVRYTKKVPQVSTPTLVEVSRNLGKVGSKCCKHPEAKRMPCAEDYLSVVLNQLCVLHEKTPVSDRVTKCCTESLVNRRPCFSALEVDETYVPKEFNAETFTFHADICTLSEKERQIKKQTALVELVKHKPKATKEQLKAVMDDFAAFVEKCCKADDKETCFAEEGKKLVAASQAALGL
We use 3 ×10⁴ L/mol as the dividing line for Ka: on or above the line is Met, below is Not met.

COMPOUND	TEST SYSTEM	CAT
Cc1cc2c(c(O)c1-c1c(C)cc3c(c1O)/C(=C/NCCS(=O)(=O)[O-])C(=O)C(O)=C3C(C)C)/C(=C/NCCS(=O)(=O)[O-])C(=O)C(O)=C2C(C)C.[Na+].[Na+] [MEGOSIN]	Albumin (Homo sapiens, UniProt P02768)	Not met
Cc1cc2c(c(O)c1-c1c(C)cc3c(c1O)/C(=C/N[C@@H](Cc1c[nH]c4ccccc14)C(=O)[O-])C(=O)C(O)=C3C(C)C)/C(=C/N[C@@H](Cc1c[nH]c3ccccc13)C(=O)[O-])C(=O)C(O)=C2C(C)C.[Na+].[Na+]	Albumin (Homo sapiens, UniProt P02768)	Met
Cc1cc2c(c(O)c1-c1c(C)cc3c(c1O)/C(=C/NCCCCCC(=O)[O-])C(=O)C(O)=C3C(C)C)/C(=C/NCCCCCC(=O)[O-])C(=O)C(O)=C2C(C)C.[Na+].[Na+]	Albumin (Homo sapiens, UniProt P02768)	Met

# bool: Ka of "Cc1cc2c(c(O)c1-c1c(C)cc3c(c1O)/C(=C/NCCCCCCCC(=O)[O-])C(=O)C(O)=C3C(C)C)/C(=C/NCCCCCCCC(=O)[O-])C(=O)C(O)=C2C(C)C.[Na+].[Na+]" >= 3 ×10⁴ L/mol
Not met

# bool: Ka of Cc1cc2c(c(O)c1-c1c(C)cc3c(c1O)/C(=C/NC(C(=O)[O-])c1ccc(O)cc1)C(=O)C(O)=C3C(C)C)/C(=C/NC(C(=O)[O-])c1ccc(O)cc1)C(=O)C(O)=C2C(C)C.[Na+].[Na+] (stereo not given) >= 3 ×10⁴ L/mol
Not met

# bool: Ka of "Cc1cc2c(c(O)c1-c1c(C)cc3c(c1O)/C(=C/N[C@H](C(=O)[O-])c1ccccc1)C(=O)C(O)=C3C(C)C)/C(=C/N[C@H](C(=O)[O-])c1ccccc1)C(=O)C(O)=C2C(C)C.[Na+].[Na+]" >= 3 ×10⁴ L/mol
Not met
